These data points were gathered from PubChem BioAssay (Tox21).

- protocol.text: qHTS assay for small molecule disruptors of the mitochondrial membrane potential (AID 720635)
- condition.description: HepG2 mitochondrial membrane potential, Mito-MPS dye ratio; series mostly up to 83.2 µM
Records with an inconclusive call do not appear. The source made the active and inactive calls. Calls come from the whole dose curve; as a rule, active = well fitted inhibition curve with a large enough effect in the signal ratio in the repeat runs; inconclusive = weak or mixed curves, or effect the other way; inactive = flat fitted curve, though single readings scatter; the % refers to the signal ratio.
API: response.call in label 1 = active, label 0 = inactive

// below: answered compounds
[
  {
    "compound": "COc1ccccc1/C=C/C=O",
    "assigned.label": "label 0"
  },
  {
    "compound": "CC1=CC2C3CC(C=C3C)C2C1 (stereo not drawn)",
    "assigned.label": "label 0"
  },
  {
    "compound": "C[Si](C)(C)O[Si](C)(C)C",
    "assigned.label": "label 0"
  },
  {
    "compound": "Cc1ncc[nH]1",
    "assigned.label": "label 0"
  }
]

**Q:** Hi, do you know how O=C(COc1ccc(Cl)cc1)N1CCN(Cc2ccc3c(c2)OCO3)CC1 came out in this test?
**A:** label 0

**Q:** Hi, do you know how COC(=O)Nc1nc2ccc(S(=O)c3ccccc3)cc2[nH]1 (stereo not drawn) came out in this test?
**A:** label 0

**Q:** Hi, do you know how COC(C)COC(C)COC(C)CO (stereo not drawn) came out in this test?
**A:** label 0

**Q:** Hi, do you know how CC(C)OC=O came out in this test?
**A:** label 0

**Q:** Hi, do you know how CC(=O)c1ccccn1 came out in this test?
**A:** label 0

**Q:** Hi, do you know how CC(C)(C)NC(=O)[C@H]1CC[C@H]2[C@@H]3CC[C@H]4NC(=O)C=C[C@]4(C)[C@H]3CC[C@]12C came out in this test?
**A:** label 0

**Q:** Hi, do you know how Cn1cnc([N+](=O)[O-])c1Sc1ncnc2nc[nH]c12 came out in this test?
**A:** label 1

**Q:** Hi, do you know how c1ccc2c(c1)c1cccc3ccc4cccc2c4c31 came out in this test?
**A:** label 1

**Q:** Hi, do you know how CC(=O)O[C@]1(C(C)=O)CC[C@H]2[C@@H]3C=C(Cl)C4=CC(=O)[C@@H]5C[C@@H]5[C@]4(C)[C@H]3CC[C@@]21C came out in this test?
**A:** label 1

**Q:** Hi, do you know how O=CCCCC=O came out in this test?
**A:** label 0

**Q:** Hi, do you know how CC(=O)CC/C=C(\C)CCC=C(C)C came out in this test?
**A:** label 0

**Q:** Hi, do you know how COC(=O)c1ccccc1 came out in this test?
**A:** label 0

**Q:** Hi, do you know how O=S(=O)(O)c1ccc(O)cc1 came out in this test?
**A:** label 0

**Q:** Hi, do you know how c1cc(N(CC2CO2)CC2CO2)ccc1OCC1CO1 (stereo not drawn) came out in this test?
**A:** label 0

**Q:** Hi, do you know how CCC(C)(O)CCCC(C)C (stereo not drawn) came out in this test?
**A:** label 0

**Q:** Hi, do you know how COC(=O)CCC(=O)OC came out in this test?
**A:** label 0

**Q:** Hi, do you know how C=CC(C)(CCC=C(C)C)OC(C)=O (stereo not drawn) came out in this test?
**A:** label 0

**Q:** Hi, do you know how COC(=O)C1=C(C)NC(C)=C(C(=O)OCCN(C)Cc2ccccc2)C1c1cccc([N+](=O)[O-])c1 (stereo not drawn) came out in this test?
**A:** label 1

**Q:** Hi, do you know how OCCO came out in this test?
**A:** label 0

**Q:** Hi, do you know how CC(C)OB(OC(C)C)OC(C)C came out in this test?
**A:** label 0

**Q:** Hi, do you know how Cc1cccc([N+](=O)[O-])c1C came out in this test?
**A:** label 0
